pIC50: −log10 of the molar value.
Here's a roundup of pIC50 values tested on Poly [ADP-ribose] polymerase 1 (Homo sapiens, UniProt P09874), taken from various published works.
Measured endpoint: pIC50

>>> endpoint_result("C[C@H]1NC(=O)c2ccccc2[C@@H]1C(=O)N1CCC(N2CCCCC2)CC1")
7.02
>>> endpoint_result("O=C(CCC(=O)N1CCN(C(=O)c2cc(Cc3n[nH]c(=O)c4ccccc34)ccc2F)CC1)c1ccc(F)cc1")
8.39
>>> endpoint_result("O=C(NC(=S)NNS(=O)(=O)c1ccc2[nH]c(=O)c(=O)[nH]c2c1)c1ccccc1")
7.96
>>> endpoint_result("CC(C)[C@H]1NC(=O)c2ccccc2[C@@H]1C(=O)N1CCC(N2CCCCC2)CC1")
6.80
>>> endpoint_result("Cn1cnc2nc[nH]c(=O)c21")
3.11
>>> endpoint_result("O=C1CCC(N2Cc3c(NC(=O)CCCCCCCNC(=O)c4cc(Cc5n[nH]c(=O)c6ccccc56)ccc4F)cccc3C2=O)C(=O)N1 (stereo not shown)")
7.15
>>> endpoint_result("NNS(=O)(=O)c1ccc2c(=O)[nH]c(=O)[nH]c2c1")
6.58
>>> endpoint_result("Cn1ncnc1[C@H]1c2nn(Cc3cc4c(cc3[N+](=O)[O-])OCO4)c(=O)c3cc(F)cc(c23)N[C@@H]1c1ccc(F)cc1")
5.72
>>> endpoint_result("O=C1N[C@H](C2CC2)[C@@H](C(=O)N2CCC(N3CCCCC3)CC2)c2ccccc21")
7.58
>>> endpoint_result("O=C1N[C@H](c2ccccc2)[C@@H](C(=O)N2CCC(N3CCCCC3)CC2)c2ccccc21")
7.06
>>> endpoint_result("O=C1CCC(N2Cc3c(NC(=O)CCCCCCCCCCNC(=O)c4cc(Cc5n[nH]c(=O)c6ccccc56)ccc4F)cccc3C2=O)C(=O)N1 (stereo not shown)")
7.26
>>> endpoint_result("CN(C)CCNc1ccc2[nH]c(=O)c3ccccc3c2n1")
6.72
>>> endpoint_result("COc1ccc(-c2cc3cc(OC)cc(O)c3o2)cc1")
3.81
>>> endpoint_result("Cn1cnc2[nH]c(=O)[nH]c(=O)c21")
3.10
>>> endpoint_result("O=C1CCC(N2Cc3c(NC(=O)CCCCCCCCCCCNC(=O)c4cc(Cc5n[nH]c(=O)c6ccccc56)ccc4F)cccc3C2=O)C(=O)N1 (stereo not shown)")
7.68
>>> endpoint_result("O=C1NC(C2CC2)C(C(=O)N2CCC(N3CCCCC3)CC2)c2ccc(F)cc21 (stereo not shown)")
7.66

====

Here's a roundup of pIC50 values tested on Poly [ADP-ribose] polymerase 1 (Homo sapiens), taken from various published works.
pIC50: −log10 of the molar value.
Measured endpoint: pIC50

>>> endpoint_result("Cc1ccc(NS(=O)(=O)c2ccc3c(=O)[nH]c(=O)[nH]c3c2)cc1")
6.36
>>> endpoint_result("CC[C@H]1NC(=O)c2ccccc2[C@@H]1C(=O)N1CCC(N2CCCCC2)CC1")
7.35
>>> endpoint_result("O=C(c1ccccc1)n1c(=O)cc(O)n(NS(=O)(=O)c2ccc3[nH]c(=O)c(=O)[nH]c3c2)c1=S")
7.45
>>> endpoint_result("Cc1noc(C)c1-c1cc(Cc2n[nH]c(=O)c3ccccc23)cc(NC(=O)c2ccccc2C(F)(F)F)c1")
5.37
